Target: Cruzipain (Trypanosoma cruzi)
Experiment: Confirmation qHTS Assay for Inhibitors of Cruzain; also: nearly all actives have a fitted effect of over 40% in size; also: potency is read from the fitted curve at half-maximal effect
Conditions: purified cruzain, Z-FR-AMC fluorescence, 0.01% Triton
Inconclusive results are not listed. Activity calls are given as the source filed them. Calls follow the shape of the dose curve; as a rule, active = well fitted inhibition curve with a large enough effect; inconclusive = small, poorly fitted or top-dose-only effect; inactive = no such curve, though single readings can be large or run the other way.
measure-name: Potency

>  <molecule>
COc1ccc(OCCCn2c(CCNC(=O)C3CCCCC3)nc3ccccc32)cc1

>  <Potency>
1.41 µM (active)

$$$$
>  <molecule>
O=c1cc(-c2cccc(Br)c2)nc(-c2ccccc2F)o1

>  <Potency>
11.2 µM (active)

$$$$
>  <molecule>
COc1cc(C(=O)COC(=O)CNC(=O)C2CCCCC2)cc(OC)c1OC

>  <Potency>
7.94 µM (active)

$$$$

Batch: Potency for all items listed.
1. O=C(CNC(=O)c1ccccc1)OC(Cc1ccccc1)C(=O)Nc1cc(C(F)(F)F)ccc1Cl (stereo unspecified)
2. CCN(CC)c1nc(C#N)nc(OC)n1
3. CN1N/C(=C\c2ccccc2)N=C2C(=O)N(C)C(=O)N=C21
4. CC(C)(C)CNc1nc(C#N)nc(Nc2ccccc2)n1
5. O=c1cc(-c2ccccc2Cl)oc2c(NS(=O)(=O)c3cc(Cl)cc(Cl)c3O)ccc(O)c12
6. O=C(CNC(=O)c1ccccc1Cl)OC(C(=O)Nc1cc(C(F)(F)F)ccc1Cl)c1ccccc1 (stereo unspecified)
7. C=CC(=O)c1ccc2ccccc2c1
8. CCC(C(=O)NC1CCCCC1)n1c(SCc2ccccc2F)nc2ccncc21 (stereo unspecified)

Found:
1: 7.08 µM (active); 2: 7.08 µM (active); 3: 1.12 µM (active); 4: 2 µM (active); 5: 7.08 µM (active); 6: 8.91 µM (active); 7: 25.1 µM (active); 8: 4.47 µM (active)

----------
Target: Cruzipain (Trypanosoma cruzi)
Assay: Confirmation qHTS Assay for Inhibitors of Cruzain; also: nearly all actives have a fitted effect of over 40% in size;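 as to activity change, negative = inhibition: plate controls were uninhibited enzyme control for no effect and buffer wells lacking enzyme for full effect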
Conditions: purified cruzain, Z-FR-AMC fluorescence, 0.01% Triton
Inconclusive results are not listed.
Could you please report measured activity change, negative = inhibition for the items listed next?
One number for each entry, in %.

Below: 3 molecules and their reported activity change, negative = inhibition.
>  <molecule>
CCCNC(=O)Cn1c(SCc2ccccc2C)nc2ccncc21

>  <unit-of-measure>
%

>  <measured-number>
-2.3

$$$$
>  <molecule>
Cc1ccccc1OCC(=O)NCC(=O)OC(c1ccccc1)c1ccccc1

>  <unit-of-measure>
%

>  <measured-number>
-14.6

$$$$
>  <molecule>
Cc1ccc2[nH]c(=O)c(CN(Cc3ccccc3)Cc3nnnn3Cc3ccccc3)cc2c1

>  <unit-of-measure>
%

>  <measured-number>
-15.4

$$$$

Batch: activity change, negative = inhibition for all items listed.
1. Cc1ccccc1OCC(=O)NCC(=O)OCC(=O)c1ccc2c(c1)CCCC2
2. Cc1oc(=O)c(NC(=O)c2ccc(Cl)cc2)cc1C(=O)c1ccccc1
3. O=C(CNC(=O)c1ccccc1)N[C@H](C(=O)Nc1cc(C(F)(F)F)ccc1Cl)c1ccccc1
4. Cc1ccc(SCCC(=O)OCC(=O)Nc2ncc(Cl)cc2Cl)cc1
5. Cc1ccc2[nH]c(=O)c(CN(Cc3ccccc3)Cc3nnnn3Cc3ccco3)cc2c1

Found:
1. -3.79
2. -10.8
3. -13.5
4. -19.6
5. -19.4

Batch: activity change, negative = inhibition for all items listed.
1. Cc1csc(N/N=C/c2ccc(O)c([N+](=O)[O-])c2)n1
2. COc1ccc(NS(=O)(=O)c2cc(NC(=O)/C=C/c3ccccc3OC)ccc2N2CCCCC2)cc1
3. CC(C)(C)OC(=O)Cc1nnc(-c2cc3ccccc3[nH]2)o1
4. COc1ccc(-c2nc(C#N)c(NCCCN3CCOCC3)o2)cc1
5. Clc1ccccc1-c1nn2c(-c3cc(-c4ccccc4)n[nH]3)nnc2s1
6. O=C(CCN1C(=O)/C(=C/C=C/c2ccccc2)SC1=S)Nc1nccs1
7. Cc1ccc2[nH]c(=O)c(CN(Cc3ccco3)Cc3nnnn3Cc3ccco3)cc2c1
8. N#CN1CCC(NS(=O)(=O)c2ccc(C(F)(F)F)cc2)CC1

Found:
1. -63.9
2. 2.33
3. 0.423
4. -29.3
5. -2.56
6. 1.52
7. -6.56
8. -6.95

Batch: activity change, negative = inhibition for all items listed.
1. CC(C)(C)OC(=O)Cc1nnc(-c2cc3ccccc3[nH]2)s1
2. O=C(NCCc1nc2ccccc2n1CCOc1cccc2ccccc12)C1CCCCC1
3. O=C(CNC(=O)c1ccccc1)NCC(=O)OCC(=O)c1ccc2ccccc2c1
4. O=[N+]([O-])c1ccccc1S(=O)(=O)NCC1CCC(CNCC2CCc3ccccc3C2)CC1 (configuration not stated)
5. CC(C)(C)c1ccc(C(=O)NCC(=O)OC(C(=O)Nc2cc(C(F)(F)F)ccc2Cl)c2ccccc2)cc1 (configuration not stated)

Found:
[-10.9, -11.4, 21.1, -5.24, -14]

Batch: activity change, negative = inhibition for all items listed.
1. CC(C)(C)OC(=O)Cc1nnc(C(C(=O)OCc2ccccc2)c2ccccc2)s1 (configuration not stated)
2. Cc1ccc(C)c(-c2csc(-c3c(N)c(C(=O)c4ccc5c(c4)OCO5)n4ccccc34)n2)c1
3. O=C(NCc1nnc(-c2cc3ccccc3[nH]2)s1)c1ccccc1
4. COc1ccccc1N1CCN(C(=O)CN(c2ccccc2OC)S(=O)(=O)c2ccccc2)CC1
5. Cc1ccc(S(=O)(=O)NC(N)=NCCC[C@@H](N)C(=O)Nc2cc(C(F)(F)F)ccc2Cl)cc1
6. N#Cc1nc(Nc2ccc(C(F)(F)F)cc2)nc(NC2CCCC2)n1
7. CCc1ccc(OCCCn2c(CCCNC(=O)C3CCCCC3)nc3ccccc32)cc1
8. CC(C)(C)OC(=O)NCC(=O)NNC(=O)c1nc2ccccc2[nH]1

Found:
[-12.2, -1.82, 1, -10.1, -17.2, 2.22, -18.8, 2.49]

Batch: activity change, negative = inhibition for all items listed.
1. CCC(C)NC(=O)c1ccc2nc(-c3cccs3)c(-c3cccs3)nc2c1 (configuration not stated)
2. N#CN1CCC(NC(=O)c2cccc(C(F)(F)F)c2)CC1
3. O=C(CNC(=O)Cc1ccccc1)NCC(=O)OCC(=O)c1cccc2ccccc12

Found:
[-5.12, -5.22, -13]

Batch: activity change, negative = inhibition for all items listed.
1. O=c1cc(-c2ccccc2F)nc(-c2ccccc2F)o1
2. CC(C)(C)OC(=O)NCc1nnc(C(C(=O)OCc2ccccc2)c2ccccc2)s1 (configuration not stated)
3. COc1ccc(-c2nnc(NC(=O)c3ccc(S(=O)(=O)N4CCCc5ccccc54)cc3)o2)cc1
4. CC(C)(C)OC(=O)NCc1nnc(-c2cc3ccccc3[nH]2)o1
5. COc1ccc(-c2nn3c(-c4cc(C)[nH]n4)nnc3s2)cc1
6. COc1cc(OC)c(-c2nn3c(-c4cc(C)[nH]n4)nnc3s2)cc1OC

Found:
-25.6
-11.8
-17.1
0.21
-13.7
-21.4

Batch: activity change, negative = inhibition for all items listed.
1. NNC(=O)C(C(=O)OCc1ccccc1)c1ccccc1 (configuration not stated)
2. CC1CN(c2oc(-c3cccs3)nc2C#N)CC(C)O1 (configuration not stated)
3. N#CN1CCC(NC(=O)c2ccc(F)cc2)CC1
4. CC(C)(C)OC(=O)Cc1nnc(-c2nc3ccccc3[nH]2)s1

Found:
1: -1.2; 2: -79.4; 3: 0.471; 4: -9.29

FYI, the data here is from PubChem BioAssay AID2158.
